# log10(IC50) annotations
Target: human MDM2 protein (amino acids 2-188) (Homo sapiens, UniProt Q00987)
Construct: human MDM2 protein (amino acids 2-188); made in house
Sequence (Q00987 2-188): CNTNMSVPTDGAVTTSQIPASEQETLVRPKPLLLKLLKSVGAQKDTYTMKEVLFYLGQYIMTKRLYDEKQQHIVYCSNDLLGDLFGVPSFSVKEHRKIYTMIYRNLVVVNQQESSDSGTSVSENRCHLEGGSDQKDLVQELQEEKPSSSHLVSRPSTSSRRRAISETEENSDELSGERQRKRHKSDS
Test: p53-MDM2 TR-FRET assay (p53-MDM2 Assay 1)
Type: binding
Conditions: 1.25 nM MDM2-biotinylated, 10 nM Cy5-p53 peptide; read-out: IC50 (μM) of p53-Hdm2 inhibition (TR-FRET) Assay 1
Annotation: log10 of IC50, µM basis.

| compound | recorded-value |
| --- | --- |
| COc1ccc(C(C)(O)c2ccc(N3C(=O)Cc4cc(OC)c(OC(C)C)cc4[C@@H]3c3ccc(Cl)cc3)cc2)cc1 (stereo partly drawn) | -2.09 |
| COc1cc2c(cc1OC(C)C)[C@H](c1ccc(Cl)cc1)N(c1ccc(C(C)(O)C3CC4CCC(C3)N4CCO)cc1)C(=O)C2 (stereo partly drawn) | -2.32 |
| COc1cc2c(cc1OC(C)C)[C@H](c1ccc(Cl)cc1)N(c1ccc(C(C)(O)C3CCN(C(=O)F)CC3)cc1)C(=O)C2 (mixture of isomers) | -2.59 |
| COc1cc2c(cc1OC(C)C)[C@H](c1ccc(Cl)cc1)N(c1ccc(C(C)(O)C3CCC(F)(F)CC3)cc1)C(=O)C2 (stereo partly drawn) | -2.05 |
| COc1cc2c(cc1OC(C)C)[C@H](c1ccc(Cl)cc1)N(c1ccc(C(C)(O)C3CN(S(C)(=O)=O)C3)cc1)C(=O)C2 (stereo partly drawn) | -1.75 |

Then there is this compound:
# log10(IC50) lookup, item COc1cc2c(cc1OC(C)C)[C@H](c1ccc(Cl)cc1)N(c1ccc(C(C)(O)C3C4CC5CC(C4)CC3C5)cc1)C(=O)C2 (stereo partly drawn)
-0.91

The measured values listed here are drawn from patent US8859535B2.
